Assign inhibition to each entry below.
Assay: Antiangiogenic activity against chorioallantoic membrane (CAM) assay at 10 ug/egg
Format: functional, tissue-based
Give bare numbers, in %.

I need inhibition for every entry listed below, if you could help.
1. CC(C)=C1O[C@@H]2OC3(C)CC[C@H]4[C@H](C)CC[C@@H]([C@H]1C)[C@@]24OO3 (single isomer, unassigned)
2. C/C(Br)=C1\O[C@@H]2OC3(C)CC[C@H]4[C@H](C)CC[C@@H]([C@H]1C)[C@@]24OO3 (single isomer, unassigned)
3. CCC/C(Br)=C1/O[C@@H]2OC3(C)CC[C@H]4[C@H](C)CC[C@@H]([C@H]1C)[C@@]24OO3 (single isomer, unassigned)

a:
1. 29
2. 50
3. 8
